test settings: 333.15 K; 101.33 kPa; Liquid; Vibrating tube method
quantity kind: mass density (kg/m3)

CCCCC(=O)[O-].CCCC[NH2+]CCO [N-(2-hydroxyethyl)butan-1-aminium pentanoate] :: 941.1
CC(=O)[O-].CCCC[NH2+]CCO [N-(2-hydroxyethyl)butan-1-aminium acetate] :: 993
CCCC[NH2+]CCO.O=C[O-] [N-(2-hydroxyethyl)butan-1-aminium formate] :: 1013.9
CCC(=O)[O-].CCCC[NH2+]CCO [N-(2-hydroxyethyl)butan-1-aminium propionate] :: 976.3
CCCC(=O)[O-].CCCC[NH2+]CCO [N-(2-hydroxyethyl)butan-1-aminium butyrate] :: 954.5
